Target: CXCR3 (Macaca fascicularis, UniProt A0A2K5UV19)
Sequence (A0A2K5UV19 entry or part of it): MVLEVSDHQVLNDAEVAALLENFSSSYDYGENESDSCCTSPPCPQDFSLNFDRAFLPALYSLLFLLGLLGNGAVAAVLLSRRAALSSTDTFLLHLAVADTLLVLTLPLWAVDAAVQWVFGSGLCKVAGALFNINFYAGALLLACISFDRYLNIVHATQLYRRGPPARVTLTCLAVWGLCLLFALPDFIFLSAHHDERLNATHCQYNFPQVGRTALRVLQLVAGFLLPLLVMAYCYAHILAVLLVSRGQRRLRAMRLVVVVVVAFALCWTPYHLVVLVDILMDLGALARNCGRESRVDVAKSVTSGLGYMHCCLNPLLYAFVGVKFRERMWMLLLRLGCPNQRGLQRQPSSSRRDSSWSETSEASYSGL
Experiment: functional cellular assay measuring calcium flux in CXCR3 transfected cells (block of CXCR3/IP-10 interaction)
Assay type: cell-based, Cyno
Conditions: IP-10 induced intracellular calcium flux; Cyno-CHO cells stably expressing recombinant CXCR3 and G-alpha-16; IP-10 at EC80; read-out: IC50
Hi there, I'd appreciate the recorded IC50 for every entry that follows.
Reply with just the number (in µM).

-- ask Fill in IC50 for CNc1ncc(-c2ccccc2N2CCN(C(=O)Cn3ccc4cccnc43)CC2)cn1 tested with CXCR3 (Macaca fascicularis, UniProt A0A2K5UV19).
-- reply 0.007

-- ask Fill in IC50 for COC1(C)CCN(c2ncc(-c3ccccc3N3CCN(C(=O)Cn4nc(C)cc4C)CC3)cn2)CC1 tested with CXCR3 (Macaca fascicularis, UniProt A0A2K5UV19).
-- reply 0.033

-- ask Fill in IC50 for Cc1cc(C)n(CC(=O)N2CCN(c3ccc(F)cc3C(=O)Nc3nc4c(s3)CN(C)CC4)C[C@H]2C)n1 tested with CXCR3 (Macaca fascicularis, UniProt A0A2K5UV19).
-- reply 0.015

-- ask Fill in IC50 for Cc1cc(C)n(CC(=O)N2CCN(c3ccccc3-c3cnc(N4CCCCC4)nc3)CC2)n1 tested with CXCR3 (Macaca fascicularis, UniProt A0A2K5UV19).
-- reply 0.007

-- ask Fill in IC50 for CSc1ncc(-c2cc(Cl)ccc2N2CCN(C(=O)Cn3ccc4cccnc43)CC2)cn1 tested with CXCR3 (Macaca fascicularis, UniProt A0A2K5UV19).
-- reply 0.008

-- ask Fill in IC50 for COc1cc(NC(=O)c2cc(F)ccc2N2CCN(C(=O)Cn3c(=O)[nH]c4ccccc43)[C@@H](C)C2)ccn1 tested with CXCR3 (Macaca fascicularis, UniProt A0A2K5UV19).
-- reply 0.009

-- ask Fill in IC50 for Cc1cc(C)n(CC(=O)N2CCN(c3ccccc3-c3cnc(N4CCC(C(C)(C)O)CC4)nc3)CC2)n1 tested with CXCR3 (Macaca fascicularis, UniProt A0A2K5UV19).
-- reply 0.012

-- ask Fill in IC50 for CC1CN(c2ccccc2-c2cnc(S(C)(=O)=O)nc2)CCN1C(=O)Cn1ccc2cccnc21 (stereo not drawn) tested with CXCR3 (Macaca fascicularis, UniProt A0A2K5UV19).
-- reply 0.027

-- ask Fill in IC50 for COc1ccc(C(=O)NCC(=O)N2CCN(c3ccccc3-c3cnc(N4CCOCC4)nc3)CC2)cc1OC tested with CXCR3 (Macaca fascicularis, UniProt A0A2K5UV19).
-- reply 0.068

---

Hi there, I'd appreciate the recorded pIC50 for every entry that follows.
Target: CXCR3 (Macaca fascicularis)
Assay: functional cellular assay measuring calcium flux in CXCR3 transfected cells (block of CXCR3/IP-10 interaction)
Type: cell-based, Cyno
Details: IP-10 induced intracellular calcium flux; Cyno-CHO cells stably expressing recombinant CXCR3 and G-alpha-16; IP-10 at EC80; read-out: IC50
# pIC50: negative log10 of molar concentration; output just the value

-- ask Please indicate pIC50 recorded for Cc1cc(C)n(CC(=O)N2CCN(c3ccccc3-c3cnc(Oc4cccnc4)nc3)CC2)n1
-- reply 7.25

-- ask Please indicate pIC50 recorded for N#Cc1ncc(-c2ccccc2N2CCN(C(=O)Cn3ccc4cccnc43)CC2)cn1
-- reply 7.89

-- ask Please indicate pIC50 recorded for CNc1ncc(-c2cc(C(F)(F)F)ccc2N2CCN(C(=O)Cn3ccc4cccnc43)CC2)cn1
-- reply 8.30

-- ask Please indicate pIC50 recorded for Cc1cc(C)n(CC(=O)N2CCN(c3ccccc3-c3cnc(N4CC(F)(F)C4)nc3)CC2)n1
-- reply 8.15

-- ask Please indicate pIC50 recorded for CC1CN(c2ccccc2-c2cnc(N3CCC(O)CC3)nc2)CCN1C(=O)Cn1ccc2cccnc21 (stereo not drawn)
-- reply 8.05

-- ask Please indicate pIC50 recorded for O=C(CN1Cc2ccccc2C1=O)N1CCN(c2ccc(F)cc2-c2cnc(N3CCC(O)CC3)nc2)CC1
-- reply 8.05

-- ask Please indicate pIC50 recorded for CSc1ncc(-c2cc(Cl)ccc2N2CCN(C(=O)Cn3nc(C)cc3C)CC2)cn1
-- reply 8.15

-- ask Please indicate pIC50 recorded for O=C(Cn1c(=O)[nH]c2ccccc21)N1CCN(c2ccc(F)cc2-c2cnc(N3CCC(O)CC3)nc2)CC1
-- reply 8.10

-- ask Please indicate pIC50 recorded for COc1ncc(-c2ccccc2N2CCN(C(=O)CN3Cc4ccccc4C3=O)CC2)cn1
-- reply 7.77

-- ask Please indicate pIC50 recorded for O=C(Cn1cnc2cccnc21)N1CCN(c2ccc(F)cc2-c2cnc(N3CCOCC3)nc2)CC1
-- reply 7.62

-- ask Please indicate pIC50 recorded for CNc1ncc(-c2cc(C(F)(F)F)ccc2N2CCN(C(=O)Cn3nc(C)cc3C)CC2)cn1
-- reply 8.15

-- ask Please indicate pIC50 recorded for Cc1cc(C)n(CC(=O)N2CCN(c3ccc(C#N)cc3-c3cnc(N4CCOCC4)nc3)CC2)n1
-- reply 7.74

-- ask Please indicate pIC50 recorded for CC1CN(c2ccc(C(F)(F)F)cc2-c2cnc(N3CCC(O)CC3)nc2)CCN1C(=O)Cn1c(=O)[nH]c2ccccc21 (stereo not drawn)
-- reply 8.05

-- ask Please indicate pIC50 recorded for CS(=O)(=O)c1ncc(-c2cc(Cl)ccc2N2CCN(C(=O)Cn3ccc4cccnc43)CC2)cn1
-- reply 7.62

-- ask Please indicate pIC50 recorded for O=C(Cn1ccc2cccnc21)N1CC=C(c2ccccc2-c2cnc(N3CCOCC3)nc2)CC1
-- reply 7.70

-- ask Please indicate pIC50 recorded for O=C(Cn1ccc2cccnc21)N1CCN(c2ccc(C(F)(F)F)cc2-c2cnc(N3CCOCC3)nc2)CC1
-- reply 7.82

-- ask Please indicate pIC50 recorded for O=C(Cn1ccc2cccnc21)N1CCN(c2ccccc2-c2ccc(Cl)nc2)CC1
-- reply 7.51

-- ask Please indicate pIC50 recorded for COc1cccc(-c2ccccc2N2CCN(C(=O)Cn3nc(C)cc3C)CC2)c1
-- reply 7.25
